molecular target: dsRBD3/4 F109A R209A (Homo sapiens, UniProt O95793-2 102-274, F109A;R209A); test: fluorescence anisotropy
Sequence (O95793 183-355 F190A/R290A): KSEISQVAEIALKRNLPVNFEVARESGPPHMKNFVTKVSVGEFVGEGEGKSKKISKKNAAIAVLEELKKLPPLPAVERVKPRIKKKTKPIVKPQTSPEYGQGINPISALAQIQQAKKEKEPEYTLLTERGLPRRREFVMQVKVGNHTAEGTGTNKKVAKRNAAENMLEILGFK
MEASURE NAME: pKd
Scale: pKd equals -log10([C]), with [C] in mol/L.

input: Which pKd value is on record for GGCAGAAGCUGCCUCUUCGGAGGCAGUUUCUGCC (structured_RNA) [top 2/3 ARF1 SBS (sARF1 SBS)] ?
output: 7.56
